target: human androgen receptor (hAR) (Homo sapiens, UniProt P10275, T878A); construct: for the preparation of cytosolic receptor protein, the androgen-sensitive human prostate adenocarcinoma cell line LNCaP was used; endogenous in cells; host or cells: LNCaP (human prostate adenocarcinoma) cell cytosol fraction; assay: Binding assay with human androgen receptor, [3H]methyltrienolone, LNCaP cytosol; details: inhibition of [3H]methyltrienolone binding, compound 10 μM
Sequence (P10275 whole entry T878A): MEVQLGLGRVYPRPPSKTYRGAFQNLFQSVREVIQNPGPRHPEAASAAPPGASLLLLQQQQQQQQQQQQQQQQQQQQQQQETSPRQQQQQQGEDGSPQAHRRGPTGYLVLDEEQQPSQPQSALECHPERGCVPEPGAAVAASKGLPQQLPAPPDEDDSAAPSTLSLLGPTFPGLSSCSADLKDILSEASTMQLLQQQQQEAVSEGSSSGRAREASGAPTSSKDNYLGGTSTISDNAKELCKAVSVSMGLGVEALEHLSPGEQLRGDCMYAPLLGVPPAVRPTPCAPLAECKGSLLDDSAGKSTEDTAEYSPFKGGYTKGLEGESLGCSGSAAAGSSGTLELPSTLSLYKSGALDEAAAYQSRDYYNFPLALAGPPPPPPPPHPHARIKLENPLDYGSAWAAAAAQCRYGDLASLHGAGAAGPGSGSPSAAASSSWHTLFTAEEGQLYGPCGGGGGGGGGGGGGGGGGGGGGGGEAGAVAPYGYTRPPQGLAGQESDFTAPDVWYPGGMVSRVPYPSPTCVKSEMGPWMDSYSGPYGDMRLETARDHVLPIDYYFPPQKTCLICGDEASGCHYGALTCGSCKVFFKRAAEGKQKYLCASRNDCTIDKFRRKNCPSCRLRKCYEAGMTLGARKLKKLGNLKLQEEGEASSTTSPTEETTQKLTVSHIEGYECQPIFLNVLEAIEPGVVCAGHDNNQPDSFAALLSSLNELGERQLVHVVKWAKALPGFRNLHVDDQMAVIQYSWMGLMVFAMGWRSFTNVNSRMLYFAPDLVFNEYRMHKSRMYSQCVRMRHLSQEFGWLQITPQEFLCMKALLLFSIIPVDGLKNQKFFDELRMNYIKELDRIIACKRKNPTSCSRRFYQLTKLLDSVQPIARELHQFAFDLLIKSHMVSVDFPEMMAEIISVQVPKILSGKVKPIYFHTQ
Reported inhibition at 10 µM by item:
Answer in %, number only, no unit symbol.

Here are 3 compounds together with their reported answers.
Inquiry: Bench note: what inhibition at 10 µM did CC1(C)C(=O)N(c2ccc(C#N)c(C(F)(F)F)c2)C(=O)N1Cc1cc(C(F)(F)F)cc(C(F)(F)F)c1 show?
Reply text: 26

Inquiry: Would you kindly share the measured inhibition at 10 µM for CC1(C)C(=O)N(c2ccc(F)c(C(F)(F)F)c2)C(=O)N1Cc1ccccc1Oc1ccccc1 ?
Reply text: 15

Inquiry: Requested read-out: inhibition at 10 µM. Entry: CC1(C)C(=O)N(c2ccc(F)c(C(F)(F)F)c2)C(=O)N1Cc1cc(C(F)(F)F)cc(C(F)(F)F)c1
Reply text: 3

For the next question, use this compound.
Inquiry: inhibition at 10 µM for CC1(C)C(=O)N(c2ccc(Cl)c(C(F)(F)F)c2)C(=O)N1Cc1ccc(OCc2ccccc2)c(OCc2ccccc2)c1 ?
Reply text: 4

###

target: human cannabinoid receptor 1 (hCB1R) (Homo sapiens); assay: Binding to human cannabinoid receptor 1 (hCB1R), [3H]-SR141716A displacement
Sequence (P21554 whole entry): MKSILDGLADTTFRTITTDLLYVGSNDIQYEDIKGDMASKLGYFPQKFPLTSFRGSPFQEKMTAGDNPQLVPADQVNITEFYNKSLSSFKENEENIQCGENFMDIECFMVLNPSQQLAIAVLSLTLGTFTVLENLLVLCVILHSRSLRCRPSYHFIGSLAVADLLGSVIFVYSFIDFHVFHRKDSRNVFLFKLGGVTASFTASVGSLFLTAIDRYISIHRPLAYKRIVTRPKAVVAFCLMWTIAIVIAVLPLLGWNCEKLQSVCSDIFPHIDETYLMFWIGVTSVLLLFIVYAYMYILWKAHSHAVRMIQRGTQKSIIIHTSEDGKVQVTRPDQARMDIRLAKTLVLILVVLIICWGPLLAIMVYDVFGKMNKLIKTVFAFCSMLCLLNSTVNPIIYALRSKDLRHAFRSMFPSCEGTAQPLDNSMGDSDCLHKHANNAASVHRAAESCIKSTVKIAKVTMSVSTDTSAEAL
Note to self: class = bucket of Ki, per low = under 10 nM, moderate = from 10 nM up to 40 nM, high = 40 nM and over

Sample answers from the record:
Inquiry: Pick a category. Item: CC1(C)C(=O)N(c2ccc(C#N)c(C(F)(F)F)c2)C(=O)N1Cc1ccc(C(F)(F)F)cc1 [reference compound]
Reply text: high

Inquiry: Given CC1(C)C(=O)N(c2ccc(C#N)c(C(F)(F)F)c2)C(=O)N1Cc1cc(C(F)(F)F)cc(C(F)(F)F)c1 [Example 1] , name the class its Ki places it in.
Reply text: low

Inquiry: Class for CC1(C)C(=O)N(c2ccc(C#N)c(C(F)(F)F)c2)C(=O)N1Cc1ccc(C(F)(F)F)nc1 [Example 6] ?
Reply text: moderate

Inquiry: Dear colleague, I would appreciate it if you could identify the bin for CC1(C)C(=O)N(c2ccc(C#N)c(C(F)(F)F)c2)C(=O)N1Cc1ccc(OCc2ccccc2)c(OCc2ccccc2)c1 [Example 33] and reply at your convenience.
Reply text: moderate

Inquiry: Given CC1(C)C(=O)N(c2ccc(Cl)c(C(F)(F)F)c2)C(=O)N1Cc1cc(C(F)(F)F)cc(C(F)(F)F)c1 [Example 10] , name the class its Ki places it in.
Reply text: high

More entries:
Inquiry: Lab note: sort CC1(C)C(=O)N(c2ccc(C#N)c(C(F)(F)F)c2)C(=O)N1Cc1cccc(S(F)(F)(F)(F)F)c1 [Example 11] into the matching Ki band.
Reply text: moderate

Inquiry: Pick a category. Item: CC1(C)C(=O)N(c2ccc(C#N)c(C(F)(F)F)c2)C(=O)N1Cc1ccc(Cl)nc1 [Example 5]
Reply text: moderate

Inquiry: Sort CC1(C)C(=O)N(c2ccc(C#N)c(C(F)(F)F)c2)C(=O)N1Cc1ccccc1Oc1ccccc1 [Example 34] into one of the categories.
Reply text: low

###

target: human androgen receptor (hAR) (Homo sapiens, UniProt P10275, T878A); construct: for the preparation of cytosolic receptor protein, the androgen-sensitive human prostate adenocarcinoma cell line LNCaP was used; endogenous in cells; host or cells: LNCaP (human prostate adenocarcinoma) cell cytosol fraction; assay: Binding assay with human androgen receptor, [3H]methyltrienolone, LNCaP cytosol; conditions: inhibition of [3H]methyltrienolone binding, compound 1 μM
compounds and their reported inhibition at 1 µM
# value in %; strip the unit string

Here is how some compounds turned out for inhibition at 1 µM.
Inquiry: Item under review: CC1(C)C(=O)N(c2ccc(C#N)c(C(F)(F)F)c2)C(=O)N1Cc1cccc(C(F)(F)F)c1 . Reported inhibition at 1 µM?
Reply text: 54

Inquiry: Recorded inhibition at 1 µM of CC1(C)C(=O)N(c2ccc(C#N)c(C(F)(F)F)c2)C(=O)N1Cc1ccc(C(F)(F)F)nc1 , please.
Reply text: 84

Inquiry: Find the recorded inhibition at 1 µM belonging to CC1(C)C(=O)N(c2ccc(F)c(C(F)(F)F)c2)C(=O)N1Cc1ccc(F)cc1NS(N)(=O)=O and report it.
Reply text: 52

Inquiry: So what does the record say about inhibition at 1 µM for CC1(C)C(=O)N(c2ccc(C#N)c(C(F)(F)F)c2)C(=O)N1Cc1ccc(OC(F)(F)F)cc1 ?
Reply text: 20

Inquiry: So what's the measured inhibition at 1 µM for this one? CC1(C)C(=O)N(c2ccc(C#N)c(C(F)(F)F)c2)C(=O)N1Cc1ccc(Cl)nc1
Reply text: 86

# evaluate next
Inquiry: Look at this compound and give its reported inhibition at 1 µM. CC1(C)C(=O)N(c2ccc(F)c(C(F)(F)F)c2)C(=O)N1Cc1ccc(C(F)(F)F)nc1
Reply text: 47
